SYSTEM_UNDER_TEST: Metabotropic glutamate receptor 3 (Homo sapiens)
Sequence (Q14832 whole entry): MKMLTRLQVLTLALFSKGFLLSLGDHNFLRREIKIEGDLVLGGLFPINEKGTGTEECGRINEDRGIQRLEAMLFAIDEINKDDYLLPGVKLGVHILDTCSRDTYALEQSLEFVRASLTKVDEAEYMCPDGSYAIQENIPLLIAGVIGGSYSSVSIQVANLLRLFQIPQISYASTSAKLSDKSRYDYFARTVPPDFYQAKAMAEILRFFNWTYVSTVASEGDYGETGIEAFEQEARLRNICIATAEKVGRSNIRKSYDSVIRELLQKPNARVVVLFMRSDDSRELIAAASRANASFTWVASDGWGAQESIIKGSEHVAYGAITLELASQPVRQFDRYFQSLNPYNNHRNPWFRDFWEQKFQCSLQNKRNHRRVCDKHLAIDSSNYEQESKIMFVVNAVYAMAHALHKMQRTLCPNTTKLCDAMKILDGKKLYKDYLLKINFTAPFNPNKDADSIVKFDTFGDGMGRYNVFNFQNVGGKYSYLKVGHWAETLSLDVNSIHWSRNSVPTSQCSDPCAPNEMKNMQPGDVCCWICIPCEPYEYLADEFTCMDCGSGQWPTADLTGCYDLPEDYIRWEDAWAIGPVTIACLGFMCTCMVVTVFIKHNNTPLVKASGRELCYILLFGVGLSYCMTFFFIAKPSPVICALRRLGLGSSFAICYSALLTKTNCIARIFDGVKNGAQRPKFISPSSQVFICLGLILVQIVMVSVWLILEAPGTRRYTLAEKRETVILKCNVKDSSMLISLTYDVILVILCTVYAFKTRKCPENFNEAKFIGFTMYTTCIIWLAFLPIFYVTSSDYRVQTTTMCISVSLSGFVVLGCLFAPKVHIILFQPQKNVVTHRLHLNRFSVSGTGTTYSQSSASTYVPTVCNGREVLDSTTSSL
MEASUREMENT_PROTOCOL: Negative allosteric modulation of mGlu3 receptor
Entries and their IC50

Lookup: Value wanted: IC50 (Metabotropic glutamate receptor 3 (Homo sapiens)) of entry c1cnc(Nc2nc3c(s2)CCCc2[nH]ncc2-3)nc1
Found: > 10 µM

Lookup: Value wanted: IC50 (Metabotropic glutamate receptor 3 (Homo sapiens)) of entry c1ccc(Nc2nc3c(s2)CCc2[nH]ncc2-3)nc1
Found: > 10 µM

Lookup: Value wanted: IC50 (Metabotropic glutamate receptor 3 (Homo sapiens)) of entry c1ccc(Nc2nc3c(s2)CCCc2[nH]ncc2-3)nc1
Found: > 10 µM
